test.method.notes: in vitro
Format: in vitro ADME, human
condition.details: Caco-2, Papp A-B avg
Starred links: 1 amine or outer side, 2 acyl side, 3 side chain; linkers in the order of their positions; H or OH if unused. Non-standard residues stand in square brackets, D forms with d. Residues, ends and D or L forms follow the SMILES beside them. X1 = CC(C)C[C@H](NC(=S)[C@H](Cc1ccc(O)cc1)N[*:1])C(=O)[*:2]; X2 = CC(C)C[C@H](NC(=S)[C@@H](CC(C)C)N[*:1])C(=O)[*:2]; X3 = CC(C)C[C@H](N[*:1])C(=S)N[C@H](CC(C)C)C(=O)[*:2]
# key: entry, value: Papp A→B
Please state the figure in ×10⁻⁶ cm/s; there is no need to write the unit.

**Q:** Dear colleague, I am looking for the recorded Papp A→B of the following compound: CC(C)C[C@@H]1NC(=O)[C@@H](CC(C)C)NC(=S)[C@H](CC(C)C)NC(=O)[C@H](Cc2ccc(O)cc2)NC(=O)[C@H]2CCCN2C(=O)[C@H](CC(C)C)NC1=O [10f] (cyclo(LL[dP]Y[X3]))
**A:** 3.01

**Q:** Query CC(C)C[C@@H]1NC(=O)[C@H](Cc2ccc(O)cc2)NC(=O)[C@H]2CCCN2C(=O)[C@H](CC(C)C)NC(=O)[C@H](CC(C)C)NC(=S)[C@@H](CC(C)C)NC1=O [10a] (cyclo(L[dP]YL[X2])) next
**A:** 3.25

**Q:** Please do the same for CC(C)C[C@@H]1NC(=O)[C@@H](CC(C)C)NC(=O)[C@H](CC(C)C)NC(=S)[C@H](Cc2ccc(O)cc2)NC(=O)[C@H]2CCCN2C(=O)[C@H](CC(C)C)NC1=O [10e] (cyclo(LL[dP][X1][dL])) as well.
**A:** 2.01

###

study.target: pepsin (Sus scrofa, UniProt P00791)
Sequence (P00791 60-385): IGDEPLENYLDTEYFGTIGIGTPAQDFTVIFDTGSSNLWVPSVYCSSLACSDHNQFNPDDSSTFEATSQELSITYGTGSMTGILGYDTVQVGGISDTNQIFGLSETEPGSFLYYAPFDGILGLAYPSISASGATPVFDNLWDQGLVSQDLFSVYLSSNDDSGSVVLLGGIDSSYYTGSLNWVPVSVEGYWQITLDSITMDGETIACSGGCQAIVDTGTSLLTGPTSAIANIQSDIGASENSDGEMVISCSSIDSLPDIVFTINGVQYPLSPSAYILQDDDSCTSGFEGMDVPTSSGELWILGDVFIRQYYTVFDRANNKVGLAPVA
test.method.notes: in vitro
condition.details: simulated gastric fluid, pH 1.2
Starred links: 1 amine or outer side, 2 acyl side, 3 side chain; linkers in the order of their positions; H or OH if unused. Non-standard residues stand in square brackets, D forms with d. Residues, ends and D or L forms follow the SMILES beside them. X1 = CC(C)C[C@H](NC(=S)[C@H](Cc1ccc(O)cc1)N[*:1])C(=O)[*:2]; X6 = O=C([C@H](Cc1ccc(O)cc1)NC(=S)[C@H]1CCCN1[*:1])[*:2]; X3 = CC(C)C[C@H](N[*:1])C(=S)N[C@H](CC(C)C)C(=O)[*:2]; X5 = CC(C)C[C@H](NC(=S)[C@H](CC(C)C)N[*:1])C(=O)[*:2]; X4 = CC(C)C[C@H](N[*:1])C(=S)N1CCC[C@@H]1C(=O)[*:2]
Lab note: cut-off is 7%. Strictly less in remaining at 24 h is TRUE. Exactly 7% or more is FALSE.

**Q:** Is remaining at 24 h strictly under 7% for the entry CC(C)C[C@@H]1NC(=O)[C@H](Cc2ccc(O)cc2)NC(=S)[C@H]2CCCN2C(=O)[C@H](CC(C)C)NC(=O)[C@H](CC(C)C)NC(=O)[C@@H](CC(C)C)NC1=O [10d] (cyclo(LL[X6]L[dL])) ?
**A:** TRUE

**Q:** Quick one: CC(C)C[C@@H]1NC(=O)[C@H](Cc2ccc(O)cc2)NC(=O)[C@H]2CCCN2C(=O)[C@H](CC(C)C)NC(=S)[C@H](CC(C)C)NC(=O)[C@@H](CC(C)C)NC1=O [10b] (cyclo(L[dL][X5][dP]Y))
**A:** TRUE

**Q:** Proceed to CC(C)C[C@@H]1NC(=O)[C@H](Cc2ccc(O)cc2)NC(=O)[C@H]2CCCN2C(=S)[C@H](CC(C)C)NC(=O)[C@H](CC(C)C)NC(=O)[C@@H](CC(C)C)NC1=O [10c] (cyclo(L[dL]L[X4]Y))
**A:** TRUE

**Q:** Would you mind doing CC(C)C[C@@H]1NC(=O)[C@@H](CC(C)C)NC(=O)[C@H](CC(C)C)NC(=S)[C@H](Cc2ccc(O)cc2)NC(=O)[C@H]2CCCN2C(=O)[C@H](CC(C)C)NC1=O [10e] (cyclo(LL[dP][X1][dL])) as well?
**A:** FALSE

**Q:** Would you mind doing CC(C)C[C@@H]1NC(=O)[C@H](Cc2ccc(O)cc2)NC(=O)[C@H]2CCCN2C(=O)[C@H](CC(C)C)NC(=O)[C@H](CC(C)C)NC(=O)[C@@H](CC(C)C)NC1=O [compound 10, cyclo(-D-Leu^1-Leu-Leu-D-Pro-Tyr-Leu^6-)] (cyclo(LL[dP]YL[dL])) as well?
**A:** TRUE

Then this compound:
**Q:** Is the reported remaining at 24 h for CC(C)C[C@@H]1NC(=O)[C@@H](CC(C)C)NC(=S)[C@H](CC(C)C)NC(=O)[C@H](Cc2ccc(O)cc2)NC(=O)[C@H]2CCCN2C(=O)[C@H](CC(C)C)NC1=O [10f] (cyclo(LL[dP]Y[X3])) strictly below 7%?
**A:** FALSE
